Form field: IC50 (one value per entry).
# assaySystem: PfAtg8-PfAtg3 interaction (Plasmodium falciparum, UniProt Q8IJK2)
# Sequence (Q8IJK2 whole entry C32I/C119S/C122S, form open): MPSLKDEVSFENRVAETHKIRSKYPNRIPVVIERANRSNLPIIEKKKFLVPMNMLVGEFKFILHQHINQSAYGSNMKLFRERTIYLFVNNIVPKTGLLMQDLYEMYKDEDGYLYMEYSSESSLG
# Format: binding, P. falciparum
# conditionDetails: read-out: IC50 SPR; inhibition of PfAtg8-PfAtg3 interaction
measuredProperty: IC50

>>> result("CSc1ccccc1C(=O)Nc1nc(-c2ccccn2)cs1 [Compound 2]")
"15 µM"
>>> result("O=C(CCCC[C@H]1SC[C@H]2NC(=O)N[C@H]21)NCCCCCC(=O)NNCc1ccc(C(=O)Nc2nc(-c3ccccn3)cs2)cc1 [Compound 8]")
"2.66 µM"

---

# assaySystem: PfAtg8^CM (Plasmodium falciparum, UniProt Q8IJK2)
measuredProperty: Kd (nM)

>>> quantitativereadout("O=C(CCCC[C@H]1SC[C@H]2NC(=O)N[C@H]21)NCCCCCC(=O)NNCc1ccc(C(=O)Nc2nc(-c3ccccn3)cs2)cc1 [Compound 8]")
540

The values you see were collected from patent US20170044150A1.
